Reported EC50 values for a set of molecules
Experimental system: Short transient receptor potential channel 4 (Mus musculus, UniProt Q9QUQ5)
Sequence (Q9QUQ5 whole entry): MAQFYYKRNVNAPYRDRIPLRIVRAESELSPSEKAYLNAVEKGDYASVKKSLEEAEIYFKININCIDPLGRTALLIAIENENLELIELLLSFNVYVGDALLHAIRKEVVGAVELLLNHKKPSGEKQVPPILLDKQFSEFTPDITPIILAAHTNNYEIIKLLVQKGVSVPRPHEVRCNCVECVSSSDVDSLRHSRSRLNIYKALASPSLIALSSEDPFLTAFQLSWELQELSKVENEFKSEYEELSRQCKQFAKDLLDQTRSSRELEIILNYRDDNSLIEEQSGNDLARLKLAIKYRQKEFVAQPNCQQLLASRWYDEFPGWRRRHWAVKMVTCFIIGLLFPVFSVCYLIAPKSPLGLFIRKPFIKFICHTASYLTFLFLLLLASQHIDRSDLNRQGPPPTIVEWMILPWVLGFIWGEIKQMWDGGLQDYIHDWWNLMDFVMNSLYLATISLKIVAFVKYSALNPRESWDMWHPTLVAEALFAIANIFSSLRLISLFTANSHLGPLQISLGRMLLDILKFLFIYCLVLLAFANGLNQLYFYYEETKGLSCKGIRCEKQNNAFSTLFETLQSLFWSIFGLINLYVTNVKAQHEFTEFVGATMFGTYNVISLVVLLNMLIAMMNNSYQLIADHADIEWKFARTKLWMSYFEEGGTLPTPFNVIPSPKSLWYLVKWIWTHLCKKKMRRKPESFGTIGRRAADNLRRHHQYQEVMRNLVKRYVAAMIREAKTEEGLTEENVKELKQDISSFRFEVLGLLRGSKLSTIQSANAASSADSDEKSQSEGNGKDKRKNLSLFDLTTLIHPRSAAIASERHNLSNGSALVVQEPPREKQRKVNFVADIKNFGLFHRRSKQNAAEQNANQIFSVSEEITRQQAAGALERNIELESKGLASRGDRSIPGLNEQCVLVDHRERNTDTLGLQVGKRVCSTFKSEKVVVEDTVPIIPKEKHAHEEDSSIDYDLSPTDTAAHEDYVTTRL
Experiment: mouse TRPC4 channel inhibitors, dose response, cell-based, HEK293 TRPC4/mu-opioid, Fluo-4 calcium (AID 434942);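 further: potency of inhibitors blocking the TRPC4 calcium response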
Type: functional
The source made the active and inactive calls.

>  <Molecule>
COc1ccc(C2CC2/C(=N/O)c2ccccc2)cc1 (centres undefined)

>  <EC50>
2.99 µM (active)

$$$$
>  <Molecule>
COc1ccc(Sc2nc(-c3ccccc3)ncc2C(=O)O)cc1

>  <EC50>
5.96 µM (active)

$$$$
>  <Molecule>
O=C(Nc1ccnn1C1CCN(CCCC2CCCC2)CC1)c1ccccc1Cl

>  <EC50>
1.68 µM (active)

$$$$
>  <Molecule>
CC12CC3(C)CC(C)(C1)CC(NC(=O)N1CCCC1)(C2)C3

>  <EC50>
7.5 µM (active)

$$$$

###

Tested on: Streptococcus
Experiment: Group A Streptococcus viability loss, dose response, counter-screen for streptokinase expression inhibitor project, luminescence, BacTiterGlo (AID 1915);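 further: potency for reduction of bacterial viability or growth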
Assay type: functional, organism-based
Active and inactive are the calls of the source.

>  <Structure>
CC(C)(C)N(Cc1ccccc1)C(=O)COc1cccnc1[N+](=O)[O-]

>  <EC50>
> 150 µM (not active)

$$$$
>  <Structure>
O=C(NC(=S)Nn1cnc2c(cnn2-c2ccccc2)c1=O)c1ccc(Oc2ccccc2)cc1

>  <EC50>
> 150 µM (not active)

$$$$
>  <Structure>
O=C(O)COc1ccc(/C=N/Nc2nc(Nc3ccccc3)nc(N3CCCCC3)n2)cc1

>  <EC50>
16.7 µM (active)

$$$$

###

Experimental system: Disintegrin and metalloproteinase domain-containing protein 17 (Homo sapiens, UniProt P78536)
Sequence (P78536 whole entry, the tested form may be a part): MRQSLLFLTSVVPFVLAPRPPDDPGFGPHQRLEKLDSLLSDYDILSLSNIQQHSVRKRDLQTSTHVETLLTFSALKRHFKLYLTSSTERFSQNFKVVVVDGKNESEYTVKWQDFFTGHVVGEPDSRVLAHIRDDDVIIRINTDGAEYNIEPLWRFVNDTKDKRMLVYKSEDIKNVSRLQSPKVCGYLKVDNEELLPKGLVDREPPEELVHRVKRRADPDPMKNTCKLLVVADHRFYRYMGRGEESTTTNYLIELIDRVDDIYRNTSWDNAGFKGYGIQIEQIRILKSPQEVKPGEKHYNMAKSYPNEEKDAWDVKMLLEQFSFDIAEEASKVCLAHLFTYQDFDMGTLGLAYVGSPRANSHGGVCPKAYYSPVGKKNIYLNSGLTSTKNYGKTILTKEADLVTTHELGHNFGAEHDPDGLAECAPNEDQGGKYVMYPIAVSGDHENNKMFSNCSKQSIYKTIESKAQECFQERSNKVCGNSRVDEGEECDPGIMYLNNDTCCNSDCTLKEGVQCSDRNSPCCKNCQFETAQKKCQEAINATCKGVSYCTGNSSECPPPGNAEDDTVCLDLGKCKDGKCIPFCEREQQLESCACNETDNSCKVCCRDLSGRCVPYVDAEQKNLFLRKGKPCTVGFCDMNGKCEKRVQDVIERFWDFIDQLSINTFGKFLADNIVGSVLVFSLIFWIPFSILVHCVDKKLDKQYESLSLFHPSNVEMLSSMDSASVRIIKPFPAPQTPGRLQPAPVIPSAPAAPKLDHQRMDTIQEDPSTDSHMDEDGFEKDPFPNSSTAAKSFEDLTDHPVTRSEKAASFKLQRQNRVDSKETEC
Experiment: ADAM17 protease inhibitors, dose response, counter-screen for ADAM10 exosite inhibitor project, biochemical, quenched FRET substrate (AID 743253)
The source made the active and inactive calls.

>  <Structure>
CC1(C)C=Cc2c(ccc3c2OC[C@H](c2ccc(O)cc2O)C3)O1

>  <IC50>
> 69.5 µM (inactive)

$$$$
>  <Structure>
CN1C(=O)c2cc(NS(=O)(=O)c3ccc(F)cc3)ccc2OC[C@H]2O[C@@H](CC(=O)NCC(F)(F)F)CC[C@@H]21

>  <IC50>
> 69.6 µM (inactive)

$$$$
>  <Structure>
CC(=O)c1ccc(N2CCC(c3cc(-c4ccc(Cl)cc4Cl)n[nH]3)CC2)c([N+](=O)[O-])c1

>  <IC50>
> 69.5 µM (inactive)

$$$$
>  <Structure>
O=C(Nc1ccc(N2CCCC2)c(S(=O)(=O)Nc2cccc(C(F)(F)F)c2)c1)c1cccs1

>  <IC50>
> 69.5 µM (inactive)

$$$$
>  <Structure>
COc1ccc2c(c1)c(CC(=O)Nc1ccc(C(C)=O)cc1)c(C)n2C(=O)c1ccc(Cl)cc1

>  <IC50>
> 69.5 µM (inactive)

$$$$
>  <Structure>
COc1ccc(CN([C@H](CO)CC(C)C)S(=O)(=O)N(Cc2ccccc2)[C@H](CO)CC(C)C)cc1

>  <IC50>
> 69.5 µM (inactive)

$$$$

###

Reported EC50 values for a set of molecules
Experimental system: Endoribonuclease toxin MazF (Escherichia coli K-12, UniProt P0AE70)
Sequence (P0AE70 whole entry): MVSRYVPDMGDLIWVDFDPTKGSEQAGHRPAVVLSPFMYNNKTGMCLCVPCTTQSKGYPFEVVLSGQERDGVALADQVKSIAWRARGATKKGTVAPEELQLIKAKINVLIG
Experiment: fluorescent RNA oligo signal without MazF, dose response, counter-screen for MazEF activator project, biochemical, fluorescence, single-stranded RNase substrate (AID 588502)
Assay type: functional
Activity calls are given as the source filed them.

>  <Structure>
CC1=CN2C(=N)/C(=C/c3ccc([N+](=O)[O-])o3)C(=O)N=C2S1

>  <EC50>
23.8 µM (inactive)

$$$$
>  <Structure>
CCN1C(=O)/C(=C2\C=Cc3ccccc3N2CC)OC1=S

>  <EC50>
> 99 µM (inactive)

$$$$
>  <Structure>
CCCn1c(SCC(=O)Nc2nc(-c3ccc(OC)cc3)cs2)nc2c1c(=O)n(C)c(=O)n2C

>  <EC50>
> 99 µM (inactive)

$$$$
>  <Structure>
COc1ccc(/C=C2\CCCC(C(=O)C(F)(F)F)=C2O)cc1

>  <EC50>
33.8 µM (inactive)

$$$$
>  <Structure>
CCOc1ccccc1NC(=O)Cn1cnc2c(cnn2-c2ccc(C)c(C)c2)c1=O

>  <EC50>
> 99 µM (inactive)

$$$$

###

Reported IC50 values for a set of compounds
Experimental system: UniProtKB Q8IL11
Sequence (Q8IL11 whole entry): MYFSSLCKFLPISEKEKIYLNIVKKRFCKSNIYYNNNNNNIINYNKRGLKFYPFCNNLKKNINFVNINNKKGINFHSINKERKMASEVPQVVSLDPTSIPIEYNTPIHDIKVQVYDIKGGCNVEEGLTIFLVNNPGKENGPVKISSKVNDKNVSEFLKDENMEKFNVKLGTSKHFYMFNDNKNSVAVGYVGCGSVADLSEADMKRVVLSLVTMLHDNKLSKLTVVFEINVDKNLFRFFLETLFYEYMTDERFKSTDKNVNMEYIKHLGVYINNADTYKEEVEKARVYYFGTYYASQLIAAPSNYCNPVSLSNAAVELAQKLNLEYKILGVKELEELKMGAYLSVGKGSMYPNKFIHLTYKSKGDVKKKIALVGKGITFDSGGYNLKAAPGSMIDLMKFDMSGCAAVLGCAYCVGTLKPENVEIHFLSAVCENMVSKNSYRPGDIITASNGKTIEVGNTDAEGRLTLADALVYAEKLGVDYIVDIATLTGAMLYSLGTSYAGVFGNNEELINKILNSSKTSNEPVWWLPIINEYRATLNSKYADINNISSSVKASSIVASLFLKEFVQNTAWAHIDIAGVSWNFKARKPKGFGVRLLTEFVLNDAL
Experiment: P. falciparum M17LAP inhibitors, primary screen, biochemical, fluorogenic H-Leu-NHMec substrate, 1536-well (AID 1619)
Assay type: functional
Calls of active or inactive are those of the source.

>  <Compound>
CCOc1ccc(NC(=O)CSc2nnc[nH]2)c([N+](=O)[O-])c1

>  <Experimental system>
UniProtKB Q8IL11

>  <IC50>
5.46 µM (active)

$$$$
>  <Compound>
Cc1cccc(C(=O)NC(=S)NNC(=O)COc2c(C)cccc2C)c1

>  <Experimental system>
UniProtKB Q8IL11

>  <IC50>
59.1 µM (active)

$$$$
>  <Compound>
O=C(c1cn[nH]c1)c1cc(F)ccc1O

>  <Experimental system>
UniProtKB Q8IL11

>  <IC50>
20.9 µM (active)

$$$$
>  <Compound>
O=C(CN1C(=O)C2C3C=CC(C3)C2C1=O)Nc1ccc2c(c1)OCCO2 (configuration not stated)

>  <Experimental system>
UniProtKB Q8IL11

>  <IC50>
21 µM (active)

$$$$
>  <Compound>
N#CC(C#N)C(c1ccsc1)c1c(-c2ccccc2)n[nH]c1O (configuration not stated)

>  <Experimental system>
UniProtKB Q8IL11

>  <IC50>
36.7 µM (active)

$$$$
>  <Compound>
O=C(NCC(=O)N1CCCC1C(=O)O)OC1CCCCC1 (configuration not stated)

>  <Experimental system>
UniProtKB Q8IL11

>  <IC50>
39 µM (active)

$$$$
>  <Compound>
O=C(O)C1CC=CCC1C(=O)Nc1cccc(Cl)c1 (configuration not stated)

>  <Experimental system>
UniProtKB Q8IL11

>  <IC50>
6.23 µM (active)

$$$$

###

Experimental system: Protein RecA (Mycobacterium tuberculosis, UniProt P9WHJ3)
Sequence (P9WHJ3 whole entry): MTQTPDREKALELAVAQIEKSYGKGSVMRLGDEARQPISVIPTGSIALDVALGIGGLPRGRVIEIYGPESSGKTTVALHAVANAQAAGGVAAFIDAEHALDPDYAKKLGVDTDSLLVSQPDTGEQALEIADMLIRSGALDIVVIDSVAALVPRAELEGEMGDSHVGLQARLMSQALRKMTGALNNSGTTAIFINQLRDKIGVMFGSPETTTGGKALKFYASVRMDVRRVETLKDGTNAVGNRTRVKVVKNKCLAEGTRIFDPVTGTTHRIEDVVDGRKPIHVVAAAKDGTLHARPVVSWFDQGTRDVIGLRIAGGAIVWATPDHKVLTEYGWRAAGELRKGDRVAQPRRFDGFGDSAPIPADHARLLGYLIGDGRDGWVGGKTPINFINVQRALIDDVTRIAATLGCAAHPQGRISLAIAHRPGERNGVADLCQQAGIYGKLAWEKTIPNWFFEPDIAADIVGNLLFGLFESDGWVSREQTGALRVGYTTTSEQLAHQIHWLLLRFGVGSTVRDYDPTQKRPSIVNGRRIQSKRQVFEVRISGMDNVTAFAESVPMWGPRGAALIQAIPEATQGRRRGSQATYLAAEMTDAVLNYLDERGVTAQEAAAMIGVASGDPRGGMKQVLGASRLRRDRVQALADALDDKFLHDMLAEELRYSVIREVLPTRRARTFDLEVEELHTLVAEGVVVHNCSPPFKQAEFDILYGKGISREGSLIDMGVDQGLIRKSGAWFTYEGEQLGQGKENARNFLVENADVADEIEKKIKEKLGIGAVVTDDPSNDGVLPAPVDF
Experiment: Fluorescence Cell-Free Homogeneous Dose Retest to Identify Inhibitors of RecA-Intein Splicing Activity. [Related pubchem assays (depositor defined):AID2097, AID2223, AID489010, AID492950]
Type: functional
Active and inactive are the calls of the source.
Labels: active, inactive

>  <Molecule>
COc1ccc(N2C(=O)C(Cl)=C(NCc3ccccc3)C2=O)cc1

>  <Experimental system>
Protein RecA (Mycobacterium tuberculosis, UniProt P9WHJ3)

>  <Class name>
active

$$$$
>  <Molecule>
OC1=C2C(=Nc3nn(-c4ccccc4)c(O)c3C2c2ccc3c(c2)OCO3)CCC1 (stereo not given)

>  <Experimental system>
Protein RecA (Mycobacterium tuberculosis, UniProt P9WHJ3)

>  <Class name>
active

$$$$
>  <Molecule>
O=C(Cc1cc(O)n[nH]1)N/N=C/c1ccccc1Cl

>  <Experimental system>
Protein RecA (Mycobacterium tuberculosis, UniProt P9WHJ3)

>  <Class name>
active

$$$$
>  <Molecule>
Cc1nn(-c2cccc(Cl)c2)c2c1C(c1cccnc1)C(C#N)=C(N)O2 (stereo not given)

>  <Experimental system>
Protein RecA (Mycobacterium tuberculosis, UniProt P9WHJ3)

>  <Class name>
active

$$$$
>  <Molecule>
CCCCCCn1c(N2CCC(C(N)=O)CC2)nc2c1c(=O)n(C)c(=O)n2C

>  <Experimental system>
Protein RecA (Mycobacterium tuberculosis, UniProt P9WHJ3)

>  <Class name>
inactive

$$$$
